Origin of the recorded values: patent US20240391948A1

Listed next: entries and their corresponding pIC50.
Tested on: U937 cells (human monocytic cell line)
protocol.notes: Pam2CSK4-induced TNF-α secretion inhibition in PMA-differentiated U937 cells
Assay type: cell-based
condition: U-937, U937 cells differentiated with PMA, read-out: TNF-α production inhibition grade (IC50)
pIC50: −log10 of the molar value.
measured.endpoint: pIC50

[[record]]
smi = "C[C@H](CCC(=O)N[C@@H](CS(=O)(=O)O)c1ccccc1)[C@H]1CC[C@H]2[C@@H]3[C@H](O)C[C@@H]4C[C@H](O)CC[C@]4(C)[C@H]3C[C@H](O)[C@]12C"
measured_endpoint = "pIC50"
reported = "5.70 to 6.00"

[[record]]
smi = "CC[C@H]1[C@@H](O)[C@@H]2[C@H](CC[C@]3(C)[C@@H]([C@H](C)CCC(=O)NC(C)(C)CS(=O)(=O)O)CC[C@@H]23)[C@@]2(C)CC[C@@H](O)C[C@@H]12"
measured_endpoint = "pIC50"
reported = "5.70 to 6.00"

[[record]]
smi = "C[C@H](CCC(=O)N(CCS(=O)(=O)O)Cc1ccccc1)[C@H]1CC[C@H]2[C@@H]3[C@H](O)C[C@@H]4C[C@H](O)CC[C@]4(C)[C@H]3C[C@H](O)[C@]12C"
measured_endpoint = "pIC50"
reported = "6.00 to 6.30"

[[record]]
smi = "CC[C@H]1[C@@H](O)[C@@H]2[C@H](CC[C@]3(C)[C@@H]([C@H](C)CCC(=O)N(CCS(=O)(=O)O)C(C)C)CC[C@@H]23)[C@@]2(C)CC[C@@H](O)C[C@@H]12"
measured_endpoint = "pIC50"
reported = "5.70 to 6.00"

[[record]]
smi = "C[C@H](CCC(=O)N[C@@H](C)CS(=O)(=O)O)[C@H]1CC[C@H]2[C@@H]3[C@H](O)C[C@@H]4C[C@H](O)CC[C@]4(C)[C@H]3C[C@H](O)[C@]12C"
measured_endpoint = "pIC50"
reported = "5.70 to 6.00"

[[record]]
smi = "CC(C)[C@@H](CS(=O)(=O)O)NC(=O)CC[C@@H](C)[C@H]1CC[C@H]2[C@@H]3CC[C@@H]4C[C@H](O)CC[C@]4(C)[C@H]3CC[C@]12C"
measured_endpoint = "pIC50"
reported = "> 6.30"

[[record]]
smi = "CC(C)C[C@@H](CS(=O)(=O)O)NC(=O)CC[C@@H](C)[C@H]1CC[C@H]2[C@@H]3[C@H](O)C[C@@H]4C[C@H](O)CC[C@]4(C)[C@H]3C[C@H](O)[C@]12C"
measured_endpoint = "pIC50"
reported = "> 6.30"

[[record]]
smi = "C[C@H](CCC(=O)N1CCC(CCS(=O)(=O)O)CC1)[C@H]1CC[C@H]2[C@@H]3CC[C@@H]4C[C@H](O)CC[C@]4(C)[C@H]3C[C@H](O)[C@]12C"
measured_endpoint = "pIC50"
reported = "> 6.30"

[[record]]
smi = "CC[C@H]1[C@@H](O)[C@@H]2[C@H](CC[C@]3(C)[C@@H]([C@H](C)CCC(=O)N(CCS(=O)(=O)O)c4ccccc4)CC[C@@H]23)[C@@]2(C)CC[C@@H](O)C[C@@H]12"
measured_endpoint = "pIC50"
reported = "6.00 to 6.30"

[[record]]
smi = "C[C@H](CCC(=O)N1CCC[C@H](S(=O)(=O)O)C1)[C@H]1CC[C@H]2[C@@H]3CC[C@@H]4CC(=O)CC[C@]4(C)[C@H]3CC[C@]12C"
measured_endpoint = "pIC50"
reported = "6.00 to 6.30"

